Would you mind telling me the reported growth inhibition of each entry?
protocol-description: NCI Yeast Anticancer Drug Screen. Data for the cln2 rad14 strain (AID 165);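 note: 0% = growth equal to vehicle treated cultures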
conditions: S. cerevisiae cln2 rad14 strain, active compounds read high; at 50.0 µM unless noted
About 79,000 compounds went through this panel and 15% of them were active in at least one assay; those are over-represented in the sample as a whole. Activity calls are given as the source filed them. Cut-off read from the data, not from the text of the source: active = growth inhibition above about 70%; inactive = the rest.

The reported value for COc1cc(C2c3cc4c(c(OC)c3CC3COC(=O)[C@@H]32)OCO4)cc(OC)c1O (stereo not given in full) in terms of growth inhibition is 76.3% (active)

The reported value for O=C(OC1C2C=COC(OC3OC(CO)C(O)C(O)C3O)C2C2(CO)OC12)c1ccc(O)cc1 (stereo not given) in terms of growth inhibition is 18.6% (inactive)

The reported value for Cc1nc2c(cc1C(=O)NN)c(=O)n(C)c(=O)n2C in terms of growth inhibition is -5.85% (inactive)

The reported value for COC1=Nc2ccccc2N2CCN=C12 in terms of growth inhibition is -1.35% (inactive)

The reported value for Cc1nnc(N/N=C(/C(=O)C(C#N)c2ccc(Cl)cc2)C(C#N)c2ccc(Cl)cc2)n1N (stereo not given) in terms of growth inhibition is 16.6% (inactive)

The reported value for COc1c2c(c(OC)c3ccccc13)C(=O)C1=C(CC=CC1)C2=O in terms of growth inhibition is -10.1% (inactive)

The reported value for Cc1cccc[n+]1C in terms of growth inhibition is -19.2% (inactive)

The reported value for CC12CCC(CC1(Cl)Cl)C2 (stereo not given) in terms of growth inhibition is 14.3% (inactive)

The reported value for Cc1ccc(N2CCC(O)C2)cc1 (stereo not given) in terms of growth inhibition is 4.95% (inactive)

The reported value for NC(N)=N/N=C(\c1ccc(C(F)(F)F)cc1)c1ccc(Cl)c(Cl)c1 in terms of growth inhibition is 99.2% (active)

The reported value for O=C(Nc1cccc2ccccc12)c1ccc(Cl)cc1Cl in terms of growth inhibition is 1.35% (inactive)

The reported value for COC1COCOC1C(OC)C1OCOCC1OC (stereo not given) in terms of growth inhibition is -46.3% (inactive)

The reported value for O=C(O)Cc1ccc(-c2cn3c(n2)sc2ccccc23)cc1 in terms of growth inhibition is 5.45% (inactive)

The reported value for Cc1ccc(Cl)cc1NC(=O)Nc1ccccc1Cl in terms of growth inhibition is -12.2% (inactive)

The reported value for Cc1ccc(C2=NN(c3ccccc3)C(c3ccccc3)C2NC2CCCCC2)cc1 (stereo not given) in terms of growth inhibition is -27.4% (inactive)

The reported value for OCC(O)COc1ccc(F)cc1 (stereo not given) in terms of growth inhibition is 4.55% (inactive)

The reported value for OC1(c2cccnc2)c2ccccc2Oc2ccccc21 in terms of growth inhibition is -28.1% (inactive)

The reported value for O=C1OCc2ccccc21 in terms of growth inhibition is -26.7% (inactive)

The reported value for CC(C)=CC1C(C(=O)Oc2ccccc2C(C)C)C1(C)C (stereo not given) in terms of growth inhibition is -22.6% (inactive)

The reported value for [N-]=[N+]=NC1(N=[N+]=[N-])C(=O)Nc2ccccc2C1=O (stereo not given) in terms of growth inhibition is 3.65% (inactive)

The reported value for CC(C)(O)C#CC(C)(C)O in terms of growth inhibition is 0.25% (inactive)

The reported value for COc1cc(OC)c(NC(=O)C2=C(C)NC(C)=C(C(=O)Nc3cc(Cl)c(OC)cc3OC)C2c2cccc([N+](=O)[O-])c2)cc1Cl in terms of growth inhibition is 36.1% (inactive)

The reported value for CCN1c2ccccc2CC(CCCN(C)C)(C(N)=O)c2ccccc21 (stereo not given) in terms of growth inhibition is 9.45% (inactive)

The reported value for COc1ccc(COC(=O)Nc2ccccc2F)c(OC)c1OC in terms of growth inhibition is -3.55% (inactive)

The reported value for C/C(CC(=O)Nc1cc(C)ccc1C)=N\NC(=O)c1ccncc1 in terms of growth inhibition is 22.7% (inactive)
